molecular target: Angiotensin II receptor (AT-1) type-1 (Rattus norvegicus, UniProt P29089+P25095); test: In vitro inhibition of specific binding of [125 I] A II to rat liver membrane.
experimental.readout: log10 of IC50 (log10 of the value in nM)
Would you kindly interpret these values as log10 of IC50 expressed in nM?

## Input Could you tell me which log10 of IC50 is on file for `Cc1nc2c(c(C(F)(F)F)n1)CCC(=O)N2Cc1ccc(-c2ccccc2-c2nn[nH]n2)cc1` ?
## Output 1.39

## Input Could you tell me which log10 of IC50 is on file for `Cc1nc(C)c2c(n1)N(Cc1ccc(-c3ccccc3-c3nn[nH]n3)cc1)C(=O)C(C)(C)C2` ?
## Output 0.48

## Input Could you tell me which log10 of IC50 is on file for `Cc1nc2c(c(C(F)(F)F)n1)CCC(=O)N2Cc1ccc(-c2ccccc2-c2nn[nH]n2)nc1` ?
## Output 1.98

## Input Could you tell me which log10 of IC50 is on file for `Cc1nc(C)c2c(n1)N(Cc1ccc(-c3ccccc3-c3nn[nH]n3)cc1)CCC2` ?
## Output 2.23

## Input Could you tell me which log10 of IC50 is on file for Cc1nc(C)c2c(n1)N(Cc1ccc(-c3ccccc3-c3nnn[nH]3)cc1)C(=O)CC2 [TASOSARTAN] ?
## Output 0.72

## Input Could you tell me which log10 of IC50 is on file for `CCc1nc(C)nc2c1CCC(=O)N2Cc1ccc(-c2ccccc2-c2nn[nH]n2)cc1` ?
## Output 0.36

## Input Could you tell me which log10 of IC50 is on file for `Cc1nc(C(C)C)c2c(n1)N(Cc1ccc(-c3ccccc3-c3nn[nH]n3)cc1)C(=O)CC2` ?
## Output 1.11

## Input Could you tell me which log10 of IC50 is on file for `Cc1nc(C=O)c2c(n1)N(Cc1ccc(-c3ccccc3-c3nn[nH]n3)cc1)C(=O)CC2` ?
## Output 1.71

## Input Could you tell me which log10 of IC50 is on file for `CCCc1nc(C)c2c(n1)N(Cc1ccc(-c3ccccc3-c3nn[nH]n3)cc1)C(=O)CC2` ?
## Output 0.13

## Input Could you tell me which log10 of IC50 is on file for `CCCc1nc(C)nc2c1CCC(=O)N2Cc1ccc(-c2ccccc2-c2nn[nH]n2)cc1` ?
## Output 0.26

## Input Could you tell me which log10 of IC50 is on file for `Cc1nc(C(C)C)nc2c1CCC(=O)N2Cc1ccc(-c2ccccc2-c2nn[nH]n2)cc1` ?
## Output 0.34

## Input Could you tell me which log10 of IC50 is on file for `Cc1nc(C)c2c(n1)N(Cc1ccc(-c3ccccc3-c3nn[nH]n3)nc1)C(=O)CC2` ?
## Output 1.39

## Input Could you tell me which log10 of IC50 is on file for `Cc1nc(C)c2c(n1)N(Cc1ccc(-c3ccccc3-c3nn[nH]n3)cn1)C(=O)CC2` ?
## Output 1.69

## Input Could you tell me which log10 of IC50 is on file for Cc1nc(C)c2c(n1)N(Cc1ccc(-c3ccccc3-c3nn[nH]n3)cc1)C(=O)C(C)C2 (configuration not stated) ?
## Output 0.51

## Input Could you tell me which log10 of IC50 is on file for `CCc1nc(C)c2c(n1)N(Cc1ccc(-c3ccccc3-c3nn[nH]n3)cc1)C(=O)CC2` ?
## Output 0.11

## Input Could you tell me which log10 of IC50 is on file for `Cc1nc(C)c2c(n1)N(Cc1ccc(-c3ccccc3C(=O)[O-])cc1)C(=O)CC2.[K+]` ?
## Output 1.93

## Input Could you tell me which log10 of IC50 is on file for `Cc1nc(CO)nc2c1CCC(=O)N2Cc1ccc(-c2ccccc2-c2nn[nH]n2)cc1` ?
## Output 2.45
